TARGET_UNDER_TEST: NPM-ALK-BaF3 (Homo sapiens, UniProt Q9UM73)
Construct: expressed in transfected cells; host or cells: Ba/F3 cells; the other entry of the earlier key: NPM1 (P06748, Nucleophosmin)
Sequence (Q9UM73 with tags, fused parts or gaps): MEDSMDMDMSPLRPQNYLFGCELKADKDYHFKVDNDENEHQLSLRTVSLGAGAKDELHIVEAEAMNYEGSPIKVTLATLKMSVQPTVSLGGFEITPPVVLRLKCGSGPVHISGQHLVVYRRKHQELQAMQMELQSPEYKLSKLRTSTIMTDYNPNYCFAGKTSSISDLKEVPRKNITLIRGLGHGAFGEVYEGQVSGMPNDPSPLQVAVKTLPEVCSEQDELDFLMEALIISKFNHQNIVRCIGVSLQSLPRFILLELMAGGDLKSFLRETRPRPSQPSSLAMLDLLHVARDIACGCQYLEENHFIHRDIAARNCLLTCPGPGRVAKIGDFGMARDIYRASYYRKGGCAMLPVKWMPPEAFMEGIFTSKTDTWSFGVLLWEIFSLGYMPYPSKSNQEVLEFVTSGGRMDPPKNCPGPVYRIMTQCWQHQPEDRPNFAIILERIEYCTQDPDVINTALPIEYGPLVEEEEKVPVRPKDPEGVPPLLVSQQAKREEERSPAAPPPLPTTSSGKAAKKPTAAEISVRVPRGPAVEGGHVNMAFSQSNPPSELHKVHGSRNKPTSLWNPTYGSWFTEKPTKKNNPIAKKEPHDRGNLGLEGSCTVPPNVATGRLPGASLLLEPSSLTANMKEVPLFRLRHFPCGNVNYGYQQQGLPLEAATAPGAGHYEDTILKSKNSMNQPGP
PROTOCOL_DESCRIPTION: Growth inhibition of NPM-ALK transformed BaF3 cells (MTS)
Type: cell-based
CONDITION_DETAILS: 48 hours, Table 12
Please go through the items and note down their IC50.

In the examples that follow, each entry is paired with its recorded IC50.
SMILES_ENTRY	METRIC_NAME	RESULT
COc1cc(N2CCC(N3CCN(C)CC3)CC2)ccc1Nc1nc(Nc2ccccc2S(C)(=O)=O)c2c(ccn2C)n1	IC50	~3460 nM
CC(C)S(=O)(=O)c1ccccc1Nc1nc(Nc2ccc(N3CCN(C)CC3)cc2)nc2ccn(C)c12	IC50	~2580 nM
Cn1ccc2nc(Nc3ccc(N4CCC(O)CC4)cc3)nc(NCc3ccccc3S(C)(=O)=O)c21	IC50	> 10000 nM
Cn1ccc2nc(Nc3ccc(S(N)(=O)=O)cc3)nc(Nc3ccccc3S(C)(=O)=O)c21	IC50	> 10000 nM
COC(=O)c1ccccc1Oc1nc(Nc2ccc(S(N)(=O)=O)cc2)nc2ccn(C)c12	IC50	> 10000 nM
COc1cc(N2CCN(C)CC2)ccc1Nc1nc(Nc2ccccc2SC(C)C)c2c(ccn2C)n1	IC50	~2510 nM

# batch size: 6; output IC50 per entry
1. CCOc1cc(C(=O)N2CCC(N3CCN(C)CC3)CC2)ccc1Nc1nc(Nc2ccccc2SC(C)C)c2c(ccn2C)n1
2. CC(C)Sc1ccccc1CNc1nc(Nc2ccc(S(N)(=O)=O)cc2)nc2ccn(C)c12
3. CC(C)S(=O)(=O)c1ccccc1Nc1nc(Nc2ccc(S(N)(=O)=O)cc2)nc2ccn(C)c12
4. COc1cc(C(=O)N2CCC(N3CCN(C)CC3)CC2)ccc1Nc1nc(NCc2ccccc2S(C)(=O)=O)c2c(ccn2C)n1
5. COc1cc(N2CCC(N3CCN(C)CC3)CC2)ccc1Nc1nc(Nc2ccccc2S(=O)(=O)C(C)C)c2c(ccn2C)n1
6. COc1cc(N2CCN(C)CC2)ccc1Nc1nc(Nc2ccccc2S(C)(=O)=O)c2c(ccn2C)n1

Solution:
1: ~1370 nM; 2: > 10000 nM; 3: ~6350 nM; 4: > 10000 nM; 5: 829 nM; 6: 5120 nM

# batch size: 8; output IC50 per entry
1. CSc1ccccc1CNc1nc(Nc2ccc(N3CCC(O)CC3)cc2)nc2ccn(C)c12
2. CCOc1cc(C(=O)N2CCC(N3CCN(C)CC3)CC2)ccc1Nc1nc(Nc2ccccc2S(=O)(=O)C(C)C)c2c(ccn2C)n1
3. COC(=O)c1ccccc1Nc1nc(Nc2ccc(N3CCN(C)CC3)cc2OC)nc2ccn(C)c12
4. Cc1cc(Nc2nc(Nc3ccccc3S(=O)(=O)C(C)C)c3c(ccn3C)n2)c(OC(C)C)cc1C1CCN(C)CC1
5. CN1CCN(c2ccc(Nc3nc(NCc4ccccc4S(C)(=O)=O)c4c(ccn4C)n3)cc2)CC1
6. CCOc1cc(N2CCC(O)CC2)ccc1Nc1nc(Nc2ccccc2S(=O)(=O)C(C)C)c2c(ccn2C)n1
7. COc1cc(N2CCN(C)CC2)ccc1Nc1nc(NCc2ccccc2SC(C)C)c2c(ccn2C)n1
8. COC(=O)c1ccccc1Nc1nc(Nc2ccc(C(=O)N3CCC(N4CCN(C)CC4)CC3)cc2OC)nc2ccn(C)c12

Solution:
["> 10000 nM", "~982 nM", "4870 nM", "~3460 nM", "1880 nM", "~3130 nM", "627 nM", "4210 nM"]
